# Test system: Mycobacterium tuberculosis
# TEST_NAME: Cornell - Phenotypic assay to identify agents that inhibit growth of Mycobacterium tuberculosis
# Assay type: functional
# Design: scale not given: direction of the effect not stated beside the values
# STATED_CONDITIONS: 10 mM as filed; unlikely as a test dose
The campaign covered roughly 53,000 compounds. About 900 (1.7%) showed an effect of 50% or more. Only a selection was taken, and strong results are over-represented in it overall.
Classify by measured Percent Effect: Y if it is equal to or exceeds 20%, N if it is smaller.

Does the reported Percent Effect for COc1ccnc(N2CCN(C(=O)N3CCOCC3)CC2)n1 fall at or above the 20% mark?
N

Does the reported Percent Effect for Cn1cc(CNC2CCCOc3c2ccc2ccccc32)cn1 (centres undefined) fall at or above the 20% mark?
Y

Does the reported Percent Effect for Cc1nc(CNC(=O)c2cc(Cn3ccnc3C(C)C)[nH]n2)sc1C fall at or above the 20% mark?
N

Does the reported Percent Effect for COc1cccc(-c2noc3c2CN(c2nc(C)ncc2C)CC3)c1 fall at or above the 20% mark?
Y

Does the reported Percent Effect for CNCCCNc1nc(C2CCCC2)nc2c1cnn2C fall at or above the 20% mark?
N

Does the reported Percent Effect for CCc1ccc(NC(=O)N2C[C@H]3C[C@H](C(=O)N4CCCC4)[C@@H](C2)O3)cc1 fall at or above the 20% mark?
N

Does the reported Percent Effect for CC(C)C1SCC(=O)Nc2c1c(O)nn2C1CCCCC1 (centres undefined) fall at or above the 20% mark?
N

Does the reported Percent Effect for Cn1ncc2c(NCCn3cccc3)nc(C3CCCC3)nc21 fall at or above the 20% mark?
Y

Does the reported Percent Effect for CC(C)COC(=O)N1CC(=O)N(CCCc2ccccc2)CC(O)C1 (centres undefined) fall at or above the 20% mark?
N

Does the reported Percent Effect for O=C(NCCc1ccc(Cl)s1)N1CCS(=O)(=O)CC1 fall at or above the 20% mark?
N

Does the reported Percent Effect for CN(C)[C@H]1CCCCN(C(=O)c2cccc(N3CCS(=O)(=O)CC3)c2)C1 fall at or above the 20% mark?
N

Does the reported Percent Effect for O=C(O)C(F)(F)F.O=C([C@@H]1CCO[C@@H]2CCN(Cc3ccsc3)C[C@@H]21)N1CCCC1 fall at or above the 20% mark?
N

Does the reported Percent Effect for OC[C@H]1CCCN1c1nccc(-c2c[nH]nc2C2CCCCC2)n1 fall at or above the 20% mark?
N

Does the reported Percent Effect for CCS(=O)(=O)CCNc1nc(C2CCCC2)nc2c1cnn2C fall at or above the 20% mark?
N

Does the reported Percent Effect for Cn1ccnc1CNC1CCCOc2c1ccc1ccccc21 (centres undefined) fall at or above the 20% mark?
Y

Does the reported Percent Effect for COc1ccc(CN2CCC(CO)(Cc3ccc(Cl)cc3)CC2)c(O)c1 fall at or above the 20% mark?
Y

Does the reported Percent Effect for OCC1(Cc2ccc(Cl)cc2)CCN(Cc2ccccc2O)CC1 fall at or above the 20% mark?
N

Does the reported Percent Effect for Cc1cccc(Nc2ccc(C3CCN(Cc4ncc[nH]4)CC3)nc2)n1 fall at or above the 20% mark?
N

Does the reported Percent Effect for COCc1cc(N2CCc3onc(-c4cccc(OC)c4)c3C2)ncn1 fall at or above the 20% mark?
Y

Does the reported Percent Effect for CCc1nnc2n1CCN(Cc1nnc(-c3occc3C)o1)C2 fall at or above the 20% mark?
N

Does the reported Percent Effect for Cc1cnn(C2CN(Cc3nc(C(C)(C)C)no3)C2)c1 fall at or above the 20% mark?
N

Does the reported Percent Effect for COCCNc1ccc(CC2CCCN(C3CCCC3)C2)nn1 (centres undefined) fall at or above the 20% mark?
Y

Does the reported Percent Effect for NC(=O)C1CCN(c2nccc(-c3c[nH]nc3C3CCCCC3)n2)CC1 fall at or above the 20% mark?
N

Does the reported Percent Effect for COc1cccc(-c2noc3c2CN(c2ncnc4c2CCC4)CC3)c1 fall at or above the 20% mark?
Y

Does the reported Percent Effect for N#CC1COCCN1C(=O)c1ccc2[nH]ccc2c1 (centres undefined) fall at or above the 20% mark?
N

Does the reported Percent Effect for COc1cc(N2CCC3(CC2)CN(C)C(=O)CO3)ncn1 fall at or above the 20% mark?
N

Does the reported Percent Effect for O=C1CC(c2ccccc2)c2c(c(C(=O)O)cn2-c2ccccc2)N1 (centres undefined) fall at or above the 20% mark?
N

Does the reported Percent Effect for CCc1ncc(CN2C[C@@H]3C[C@@H](O)CN3C[C@@H]2Cc2ccccc2)cn1 fall at or above the 20% mark?
Y

Does the reported Percent Effect for Cn1ncc2c(NCCC34CCCN3CCC4)nc(C3CCCC3)nc21 fall at or above the 20% mark?
N

Does the reported Percent Effect for O=C(NCc1cccnc1)[C@H]1C[C@@H]2CCN(c3ccncn3)C[C@H]2O1.O=C(O)C(F)(F)F.O=C(O)C(F)(F)F fall at or above the 20% mark?
N

Does the reported Percent Effect for O=C(O)C(F)(F)F.O=C(O)C(F)(F)F.O=C1[C@H]2CN(Cc3ccc(F)cc3)C[C@H]2CN1CCN1CCCC1 fall at or above the 20% mark?
N

Does the reported Percent Effect for Cc1ccc(-c2noc(CN3CC(n4cc(C)cn4)C3)n2)cc1 fall at or above the 20% mark?
Y

Does the reported Percent Effect for COc1cccc(CN2CCC(CO)(Cc3ccc(Cl)cc3)CC2)c1O fall at or above the 20% mark?
Y

Does the reported Percent Effect for COc1ccc(C2CN(c3nc(C)cc(C)n3)CCN2C(C)=O)cc1 (centres undefined) fall at or above the 20% mark?
Y

Does the reported Percent Effect for CS(=O)(=O)C1CCN(S(=O)(=O)c2ccc(F)c(F)c2)CC1 fall at or above the 20% mark?
Y

Does the reported Percent Effect for Cn1ncc2c(NCCOc3ccc(F)cc3)nc(C3CCCC3)nc21 fall at or above the 20% mark?
Y

Does the reported Percent Effect for CC(C)N(CCNc1nc(C2CCCC2)nc2c1cnn2C)C(C)C fall at or above the 20% mark?
Y

Does the reported Percent Effect for Cc1cc(Nc2ccc(F)cn2)cc(C2CCN(Cc3ncc[nH]3)C2)n1 (centres undefined) fall at or above the 20% mark?
Y

Does the reported Percent Effect for Cc1ccnc(C2CCN(C(=O)c3cnn(C)c3)CC2)n1 fall at or above the 20% mark?
N

Does the reported Percent Effect for Cn1ncc2c(NCCOCc3ccccc3)nc(C3CCCC3)nc21 fall at or above the 20% mark?
Y

Does the reported Percent Effect for COc1ccccc1CC(=O)NC(C)c1nc2cccnc2n1C(C)C (centres undefined) fall at or above the 20% mark?
N

Does the reported Percent Effect for CC(NC(=O)Cc1ccccc1F)C(=O)N1CCS(=O)(=O)CC1 (centres undefined) fall at or above the 20% mark?
N

Does the reported Percent Effect for CCOCCNc1nc(C2CCCC2)nc2c1cnn2C fall at or above the 20% mark?
N

Does the reported Percent Effect for O=C(c1cc(C2CC2)n[nH]1)N1C[C@H]2CC[C@](O)(c3ccccc3F)[C@H]2C1 fall at or above the 20% mark?
Y
